Molecular target: d-enCas12a-Ultra (Acidaminococcus sp., UniProt U2UMQ6 1-1307, E174R;S542R;K548R;M537R;F870L;D908A;E993A;D1235A)
Experiment: Spec-seq (native PAGE EMSA with sequencing of bound and unbound); 25 mM Tris-HCl pH 7.4, 150 mM KCl, 5 mM MgCl2, 10% glycerol, 1 mM DTT, 40 ng/uL salmon sperm DNA; 400 nM Cas12a, 480 nM crRNA, 50 nM library, 37 C 1 h; native PAGE at room temperature; high values mean tight binding;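 further: relative affinity from the bound to unbound sequence frequency ratio in Spec-seq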
Details: protein: recombinant
Measured binding signal values are reported for all entries that follow.
All answers are understood in lnKA, so give the number only.

Binder	binding signal [lnKA]
GAAC (dsDNA) DNA 1: GCTATCTAGTGCTCAGTACGCACTGGAACAGGAAACTTCTGGCAGGACCAGGTCATGAGATCGGAAGAGCACACGTCTGAACTCCAGTCA DNA 2: TGACTGGAGTTCAGACGTGTGCTCTTCCGATCTCATGACCTGGTCCTGCCAGAAGTTTCCTGTTCCAGTGCGTACTGAGCACTAGATAGC RNA: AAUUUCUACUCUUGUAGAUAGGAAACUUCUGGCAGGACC	-3.33

Please examine the following record next.
query: For the binder GCCA (dsDNA) DNA 1: GCTATCTAGTGCTCAGTACGCACTGGCCAAGGAAACTTCTGGCAGGACCAGGTCATGAGATCGGAAGAGCACACGTCTGAACTCCAGTCA DNA 2: TGACTGGAGTTCAGACGTGTGCTCTTCCGATCTCATGACCTGGTCCTGCCAGAAGTTTCCTTGGCCAGTGCGTACTGAGCACTAGATAGC RNA: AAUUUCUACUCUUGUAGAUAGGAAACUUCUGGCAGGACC , what binding signal is on record?
result: -1.33

Ref: paper PMC8222333
